Field: inhibition at 1000 µM. Provide a value for each of the molecules that follow.
Molecular target: human butyrylcholinesterase (Homo sapiens, UniProt P06276)
Sequence (P06276 29-602): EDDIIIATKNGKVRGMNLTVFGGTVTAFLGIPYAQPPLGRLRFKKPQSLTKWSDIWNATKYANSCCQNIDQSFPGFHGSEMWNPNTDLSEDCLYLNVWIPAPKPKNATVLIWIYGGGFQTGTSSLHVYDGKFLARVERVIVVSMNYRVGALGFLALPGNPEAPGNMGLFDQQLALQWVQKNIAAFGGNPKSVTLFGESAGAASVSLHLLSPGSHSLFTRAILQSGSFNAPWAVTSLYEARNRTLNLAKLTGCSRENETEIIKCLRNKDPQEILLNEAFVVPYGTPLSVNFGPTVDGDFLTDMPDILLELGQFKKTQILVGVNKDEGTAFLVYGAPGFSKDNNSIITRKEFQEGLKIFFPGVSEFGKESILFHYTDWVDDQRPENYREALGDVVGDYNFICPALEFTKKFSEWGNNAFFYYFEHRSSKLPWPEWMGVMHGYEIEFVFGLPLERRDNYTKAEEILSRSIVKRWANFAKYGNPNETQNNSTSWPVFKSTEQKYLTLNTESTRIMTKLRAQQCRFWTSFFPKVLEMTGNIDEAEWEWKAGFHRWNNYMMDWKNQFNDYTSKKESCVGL
Assay: BChE inhibition, modified Ellman's spectrophotometric method
Type: biochemical
Conditions: read-out: BChE % inhibition
Answers are plain numbers, in %.

# Compound string, Reported measurement
measured = [
    ("C=CCN1CCN(Cc2ccc(C(=O)Nc3nc4ccccc4s3)cc2)CC1", 30.9),
]

Report inhibition at 1000 µM for each item below.
1. C=CCN1CCN(Cc2ccc(C(=O)Nc3nc4cc(OC)ccc4s3)cc2)CC1
2. CN(C)CCN1CCN(Cc2ccc(C(=O)Nc3nc4ccccc4s3)cc2)CC1
3. COc1ccc2sc(NC(=O)c3ccc(CN4CCN(C)CC4)cc3)nc2c1
4. CCN1CCN(Cc2ccc(C(=O)Nc3nc4cc(OC)ccc4s3)cc2)CC1
5. C#CCN1CCN(Cc2ccc(C(=O)Nc3nc4cc(OC)ccc4s3)cc2)CC1
6. COc1ccc2sc(NC(=O)c3ccc(CN4CCN(CCN(C)C)CC4)cc3)nc2c1
7. COc1ccc2sc(NC(=O)c3ccc(CN4CCN(CCCN(C)C)CC4)cc3)nc2c1

Response:
32.9
45.3
33.5
39.8
30.4
42.4
40.9

Given item COc1ccc2sc(NC(=O)c3ccc(CN4CCN(C(C)C)CC4)cc3)nc2c1 , the value recorded as its inhibition at 1000 µM is 38.1

----------
Provide the recorded IC50 for the entries that follow.
Target: Human acetylcholinesterase (Homo sapiens, UniProt P22303)
Sequence (P22303 32-614): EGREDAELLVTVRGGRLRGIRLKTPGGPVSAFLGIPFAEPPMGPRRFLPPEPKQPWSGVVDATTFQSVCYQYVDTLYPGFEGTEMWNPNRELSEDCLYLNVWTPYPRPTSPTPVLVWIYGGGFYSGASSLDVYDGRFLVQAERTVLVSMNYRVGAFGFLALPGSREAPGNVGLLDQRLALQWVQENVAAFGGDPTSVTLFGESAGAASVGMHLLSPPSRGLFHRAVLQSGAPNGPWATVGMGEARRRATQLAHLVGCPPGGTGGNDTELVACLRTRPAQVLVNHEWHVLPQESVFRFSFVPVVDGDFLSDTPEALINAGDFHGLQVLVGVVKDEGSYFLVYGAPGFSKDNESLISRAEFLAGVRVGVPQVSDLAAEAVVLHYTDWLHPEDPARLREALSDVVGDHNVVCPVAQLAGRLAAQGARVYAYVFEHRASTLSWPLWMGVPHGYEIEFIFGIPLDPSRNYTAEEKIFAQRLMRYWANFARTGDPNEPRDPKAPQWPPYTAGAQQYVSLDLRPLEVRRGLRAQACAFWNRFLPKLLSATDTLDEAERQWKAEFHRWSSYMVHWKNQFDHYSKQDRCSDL
Numbers only, in nM.

For orientation, consider the following solved cases.
# Compound string, Reported measurement
records = [
    ("CN1CCN(Cc2ccc(C(=O)Nc3nc4ccccc4s3)cc2)CC1", 56.3),
    ("COc1ccc2sc(NC(=O)c3ccc(CN4CCN(C)CC4)cc3)nc2c1", 64.9),
]

Return reported IC50 values for all items listed beneath this line.
1. C#CCN1CCN(Cc2ccc(C(=O)Nc3nc4ccccc4s3)cc2)CC1
2. COc1ccc2sc(NC(=O)c3ccc(CN4CCN(CCN(C)C)CC4)cc3)nc2c1

Response:
89.6
27.8

response.value for CN(C)CCCN1CCN(Cc2ccc(C(=O)Nc3nc4ccccc4s3)cc2)CC1 (field: IC50) = 36.7

----------
Give inhibition at 1000 µM for every item shown.
Target: Human acetylcholinesterase (Homo sapiens, UniProt P22303)
Assay: AChE inhibition, modified Ellman's spectrophotometric method
Assay type: biochemical
Settings: read-out: AChE % inhibition, 10^−3 M
Numbers only, in %.

Here is how some compounds turned out for inhibition at 1000 µM.
# Compound string, Readout units, inhibition at 1000 µM
measured = [
    ("COc1ccc2sc(NC(=O)c3ccc(CN4CCN(CCN(C)C)CC4)cc3)nc2c1", "%", 95.3),
    ("CN(C)CCN1CCN(Cc2ccc(C(=O)Nc3nc4ccccc4s3)cc2)CC1", "%", 96.4),
    ("COc1ccc2sc(NC(=O)c3ccc(CN4CCN(C(C)C)CC4)cc3)nc2c1", "%", 81.7),
    ("CC(C)N1CCN(Cc2ccc(C(=O)Nc3nc4ccccc4s3)cc2)CC1", "%", 83.9),
    ("COc1ccc2sc(NC(=O)c3ccc(CN4CCN(CCCN(C)C)CC4)cc3)nc2c1", "%", 95.3),
]

Items follow; give inhibition at 1000 µM for each.
1. C=CCN1CCN(Cc2ccc(C(=O)Nc3nc4cc(OC)ccc4s3)cc2)CC1
2. CCN1CCN(Cc2ccc(C(=O)Nc3nc4cc(OC)ccc4s3)cc2)CC1
3. CN(C)CCCN1CCN(Cc2ccc(C(=O)Nc3nc4ccccc4s3)cc2)CC1
4. C#CCN1CCN(Cc2ccc(C(=O)Nc3nc4ccccc4s3)cc2)CC1
5. COc1ccc2sc(NC(=O)c3ccc(CN4CCN(C)CC4)cc3)nc2c1
6. CCN1CCN(Cc2ccc(C(=O)Nc3nc4ccccc4s3)cc2)CC1

Response:
1. 82.5
2. 86.9
3. 94.3
4. 91.6
5. 92.3
6. 85.6

Below is a list of compounds. For each, state its recorded inhibition at 1000 µM.
1. C#CCN1CCN(Cc2ccc(C(=O)Nc3nc4cc(OC)ccc4s3)cc2)CC1
2. C=CCN1CCN(Cc2ccc(C(=O)Nc3nc4ccccc4s3)cc2)CC1

Response:
90.3
82.8

Hey, Human acetylcholinesterase (Homo sapiens, UniProt P22303) data for CN1CCN(Cc2ccc(C(=O)Nc3nc4ccccc4s3)cc2)CC1 : inhibition at 1000 µM came out at 93.3

Hello, the source for this data is paper PMC9389372, in case you need it.
